pIC50: −log10 of the molar value.
// values below are pIC50; system is Upstate Lck (p56^lck, active) (Homo sapiens, UniProt P06239)
Sequence (P06239 whole entry): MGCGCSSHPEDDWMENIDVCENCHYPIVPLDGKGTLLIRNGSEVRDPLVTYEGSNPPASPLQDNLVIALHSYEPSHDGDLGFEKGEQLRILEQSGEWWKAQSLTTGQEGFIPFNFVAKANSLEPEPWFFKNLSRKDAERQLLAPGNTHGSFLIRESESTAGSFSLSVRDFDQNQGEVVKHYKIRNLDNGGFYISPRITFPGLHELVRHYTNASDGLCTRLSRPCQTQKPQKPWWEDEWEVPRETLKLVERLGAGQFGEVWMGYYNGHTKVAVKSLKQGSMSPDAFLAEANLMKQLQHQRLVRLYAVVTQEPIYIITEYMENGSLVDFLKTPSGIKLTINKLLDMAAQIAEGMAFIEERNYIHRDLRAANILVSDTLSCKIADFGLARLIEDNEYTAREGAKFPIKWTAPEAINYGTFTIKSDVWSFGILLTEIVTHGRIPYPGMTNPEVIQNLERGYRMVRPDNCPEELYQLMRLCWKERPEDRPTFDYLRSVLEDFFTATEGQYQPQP

Solved entries:
# c1ccc(CNc2cnc3[nH]c(-c4ccccc4)cc3c2)cc1 with Upstate Lck (p56^lck, active) (Homo sapiens, UniProt P06239): pIC50 is 5.30 to 6.00

# CC(=O)Nc1ccc(-c2cc3cc(NCc4ccccc4C)cnc3[nH]2)cc1 with Upstate Lck (p56^lck, active) (Homo sapiens, UniProt P06239): pIC50 is 6.00 to 7.00

# CC(Nc1cnc2[nH]c(-c3ccccc3)nc2c1)c1ccccc1 (stereo not shown) with Upstate Lck (p56^lck, active) (Homo sapiens, UniProt P06239): pIC50 is 5.30 to 6.00

Pending molecule:
# CC(=O)Nc1ccc(-c2cc3cc(NCc4ccccc4)cnc3[nH]2)cc1 with Upstate Lck (p56^lck, active) (Homo sapiens, UniProt P06239): pIC50 is 6.00 to 7.00
